Target: Cellular tumor antigen p53 (Homo sapiens)
Experiment: Primary qHTS for small molecule compounds that upregulate eGFP-tagged delta133p53alpha (in N-terminal) cells. (AID 2060322);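 further: cells pre-induced with doxycycline then dosed without doxycycline; series mostly up to about 56 µM; 0% = DMSO vehicle and 100% = reference activator; nearly all actives have a fitted effect of over 75% in size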
Details: NCI-H358 eGFP-delta133p53alpha fluorescence, 24 h; hits give high values
From the text: Assay Development and Screening Technology National Center for Advancing Translational Sciences (NCATS), National Institute of Health (NIH), Rockville, Maryland Cellular senescence (CS) is one of the hallmarks of aging and age-related diseases. […] Here we report the development and validation of a cell-based quantitative high throughput screening (qHTS) assay in 1,536-well format. […]
Records with an inconclusive call do not appear. Calls of active or inactive are those of the source. The call rests on the fitted dose curve; in most records, active means well fitted activation curve with a large enough effect; inconclusive means small, poorly fitted or top-dose-only effect; inactive means no such curve, though single readings can be large or run the other way.
observation_type: activation

C/C=C/C1OC2=C(C(=O)OC2(C)O)C(O)C1O (stereo unspecified)    28.2% (inactive)
COc1c(C)c(OCC(O)C(C)(C)O)cc2c1CNC2=O (stereo unspecified)    -1.79% (inactive)
C1CCN2CC3C[C@@H](CN4CCCC[C@@H]34)[C@H]2C1    -23.2% (inactive)
C/C=C(\C)C(=O)OCC1OC(OC2OC(CO)C(O)C(O)C2O)C(O)C(O)C1O (stereo unspecified)    -16.8% (inactive)
C=C1C(=O)O[C@@H]2[C@H]1CCC(C)=C(CCC(=O)O)[C@@]2(C)O    -18.3% (inactive)

State the recorded activation for this entry: O=C1CCC(=O)N(O)CCCCCNC(=O)CCC(=O)N(O)CCOCCNC(=O)CCC(=O)N(O)CCCCCN1
-16.8% (inactive)

Any idea what activation was measured for C/C(=C/CCC(CO)C1CCC2(C)C3CCC4C(C)(C)C(OC5OC(CO)C(O)C(O)C5O)CC(O)C45CC35CCC12C)COC1OC(CO)C(O)C(O)C1O (stereo unspecified) ?
-10.7% (inactive)

For the compound CCOC(N)=O , what activation is on record?
-2.82% (inactive)

Sample O=C(CCCl)NCc1ccccc1 — what was its activation?
-0.565% (inactive)

Quick one: activation of Oc1cccc2[nH]ccc12 ?
-5.08% (inactive)

For CC(C)=CCOc1ccc(/C=C/C(=O)c2ccc(OCC=C(C)C)cc2OCC(=O)O)cc1 , what is its reported activation?
-1.67% (inactive)

====

Target: Cellular tumor antigen p53 (Homo sapiens)
Assay: Primary qHTS for small molecule compounds that upregulate eGFP-tagged delta133p53alpha (in N-terminal) cells. (AID 2060322);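 further: cells pre-induced with doxycycline then dosed without doxycycline; series mostly up to about 56 µM; 0% = DMSO vehicle and 100% = reference activator; nearly all actives have a fitted effect of over 75% in size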
Details: NCI-H358 eGFP-delta133p53alpha fluorescence, 24 h; hits give high values
Text: Assay Development and Screening Technology National Center for Advancing Translational Sciences (NCATS), National Institute of Health (NIH), Rockville, Maryland Cellular senescence (CS) is one of the hallmarks of aging and age-related diseases. […] Here we report the development and validation of a cell-based quantitative high throughput screening (qHTS) assay in 1,536-well format. […]
Inconclusive results are not listed.
observation_type: activation (%)
Quick note: give the figure in %, leave out the unit.

Illustrative cases are given below, each with its answer.
COc1cc2c(Oc3ccc(-c4cnc(Nc5ccc(F)cc5)n(C)c4=O)cc3F)ccnc2cc1OCCCN1CCOCC1    11.5
CC(C)c1cc(-c2ccc(F)c3ccccc23)nc(N)n1    -13.4
CC1=C(C/C=C(\C)CCC[C@H](C)CCC[C@H](C)CCCC(C)C)C(=O)c2ccccc2C1=O    18.6
CSc1ccc2c(c1)C(N1CCN(C)CC1)Cc1ccccc1S2 (centres undefined)    48
CC1(C)C(O)CCC2(C)C1C(O)C=C1COC(=O)C12O (centres undefined)    3.82

What measured activation goes with CC1=CC(=O)CC(C)(C)C1CCC(C)O[C@@H]1O[C@H](CO[C@@H]2OC[C@@H](O)[C@H](O)[C@H]2O)[C@@H](O)[C@H](O)[C@H]1O (some centres undefined) ?
-10.7

Could you share which activation value was measured for CC(C)=CCC[C@@](C)(O)[C@H]1CC[C@]2(C)[C@@H]1[C@H](O)CC1[C@@]3(C)CC[C@H](O[C@@H]4O[C@H](CO)[C@@H](O)[C@H](O)[C@H]4O[C@@H]4O[C@H](CO)[C@@H](O)[C@H](O)[C@H]4O)C(C)(C)[C@@H]3CC[C@]12C (some centres undefined) ?
-17.6

Find the recorded activation belonging to CC(=O)OC1C(=O)C2C3OCC4=C3[C@@](C)(CC[C@@H]4O)CC[C@]2(C)[C@H]1C(C)C (some centres undefined) and report it.
-14.5

====

Molecular target: Cellular tumor antigen p53 (Homo sapiens)
Test: Primary qHTS for small molecule compounds that upregulate eGFP-tagged delta133p53alpha (in N-terminal) cells. (AID 2060322);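 further: cells pre-induced with doxycycline then dosed without doxycycline; series mostly up to about 56 µM; 0% = DMSO vehicle and 100% = reference activator; nearly all actives have a fitted effect of over 75% in size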
Details: NCI-H358 eGFP-delta133p53alpha fluorescence, 24 h; hits give high values
Results filed as inconclusive are left out.
observation_type: activation (%)
Enter your answer as a number in %; do not include the unit.

Solved cases (3 shown):
Cl/C(=C\n1cncn1)c1ccc(Cl)cc1Cl    -2.82
CCC(O)(C(=O)OCc1ccccc1NC(=O)CCC(=O)O)C(C)O (stereo not drawn)    4.58
CCc1cc(Cl)c(OC)c(C(=O)NC[C@@H]2CCCN2CC)c1O    13.4

# input compound: COC1CCCC/C(C)=C/C2C=C(C)C(C)C3C(CC(C)C)NC(=O)C23C(=O)C1 (stereo not drawn) ; wanted: its activation
-5.34

State the recorded activation for this entry: COc1ccc2c(c1)c(CC(=O)O)c(C)n2Cc1ccc(Cl)cc1
-32.5

Which activation is reported for this compound? CC(=O)NC1CC(=O)C23C(=O)NC(Cc4c[nH]c5ccccc45)C2C(C)=C(C)C(O)C3/C=C/CC(C)/C=C(/C)C(O)C1O (stereo not drawn)
8.93

Requested read-out: activation. Entry: O=C(CCc1ccc(O)cc1)c1c(O)cc(O)cc1O[C@@H]1O[C@H](CO)[C@H](O)[C@H](O)[C@H]1O
1.26

Which activation value is on record for O=C(COc1ccc(Cl)cc1)NC1CCC(NC(=O)COc2ccc(Cl)cc2)CC1 (stereo not drawn) ?
-5.25

Which activation is reported for this compound? CC(C)(O)C1CC=C(C(=O)OC[C@H]2O[C@@H](OC(=O)C3=CCC(C(C)(C)O)CC3)[C@H](O)[C@@H](O)[C@@H]2O)CC1 (stereo partly drawn)
-8.4

What does the record list as activation for C[C@H](CN1CCCC1)C(=O)c1ccc(C(F)(F)F)cc1 ?
21

What does the data say about its activation? Entry: CC1C(=O)OCC2=CC[N+]3([O-])CCC(OC(=O)C(C)(O)C1(C)O)C23 (stereo not drawn)
24.1

Query: activation; subject: C/C=C(\C)C(=O)O[C@H]1[C@@H](O[C@]2(COC(=O)CC(C)C)O[C@H](COC(=O)C(C)C)[C@@H](OC(C)=O)[C@@H]2O)O[C@H](COC(C)=O)[C@@H](O)[C@@H]1O
10.7

Request the reported activation associated with CC1(C)CC[C@]2(C(=O)O)CC[C@]3(C)C(=CCC4[C@@]5(C)C[C@@H](O)[C@H](O)[C@@](C)(CO)C5[C@H](O)C[C@]43C)[C@@H]2C1 (stereo partly drawn)
-19.8

Please look up its activation: CC(=O)Oc1cc2c(s1)CCN([C@H](C(=O)C1CC1)c1ccccc1F)C2
0.477

Endpoint output: activation of CC(=O)SCC(Cc1ccccc1)C(=O)NCC(=O)OCc1ccccc1 (stereo not drawn) . Value?
16.6

Report activation for Nc1nc2c(nc(Br)n2[C@@H]2O[C@@H]3COP(=O)(O)O[C@H]3[C@H]2O)c(=O)[nH]1 please.
-14.3

What activation value was documented for this compound, COc1cc(S(C)(=O)=O)ccc1Nc1nc2ccc(-c3ccc(NC(=O)[C@H](C)c4ccc(F)cc4)cc3)cn2n1 ?
-11.7

Looking for the measured activation of CC(C)(C)c1cc(C=O)cc(C(C)(C)C)c1O , can you help?
-16.4

====

Molecular target: Cellular tumor antigen p53 (Homo sapiens)
Experiment: Primary qHTS for small molecule compounds that upregulate eGFP-tagged delta133p53alpha (in N-terminal) cells. (AID 2060322);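 further: cells pre-induced with doxycycline then dosed without doxycycline; series mostly up to about 56 µM; 0% = DMSO vehicle and 100% = reference activator; nearly all actives have a fitted effect of over 75% in size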
Conditions: NCI-H358 eGFP-delta133p53alpha fluorescence, 24 h; hits give high values
Source text: Assay Development and Screening Technology National Center for Advancing Translational Sciences (NCATS), National Institute of Health (NIH), Rockville, Maryland Cellular senescence (CS) is one of the hallmarks of aging and age-related diseases. […] Here we report the development and validation of a cell-based quantitative high throughput screening (qHTS) assay in 1,536-well format. […]
Records with an inconclusive call do not appear.
observation_type: activation (%)
Write the value in % as a bare number.

The cases that follow already have their activation on record.
C[C@@H](Cc1cc2c(c(C(N)=O)c1)N(CCCO)CC2)NCCOc1ccccc1OCC(F)(F)F    13.7
OC(CC1c2ccccc2-c2cncn21)C1CCCCC1 (centres undefined)    -7.16

For the molecule COC(=O)[C@H](Cc1ccc([N+](=O)[O-])cc1)NC(=O)c1cccc2ccccc12 , what activation is on record?
11.5

Requested read-out: activation. Entry: CN1CCCC(CC2c3ccccc3Sc3ccccc32)C1 (centres undefined)
14.2

What does the record list as activation for CC1OC(OC2C(OC3C(O[C@H]4CC[C@@]5(C)C(CC[C@]6(C)C5C(=O)C=C5C7CC(C)(C)CC(O)[C@]7(C)CC[C@]56C)C4(C)C)OC(C(=O)O)C(O)C3O)OCC(O)C2O)C(O)C(O)C1O (some centres undefined) ?
2.29
